Tested on: Leptinotarsa decemlineata
Test: Antifeedant activity against Leptinotarsa decemlineata assessed as inhibition of feeding by no-choice feeding assay relative to untreated control
Type: functional, organism-based
readout.name: EC50

Solved entries (count: 4):
C=C1CCC[C@@H]2[C@@](C)(C/C=C(/C=O)CC=O)[C@H](C)CC[C@@]12C	8.5 microg/cm2
CC(=O)OC/C=C(\COC(C)=O)[C@@H](C[C@@]1(C)[C@H](C)CC[C@@]2(C)C(C)=CCC[C@H]12)OC(C)=O	> 50 microg/cm2
C[C@@H]1CC[C@@H]2C(C)(C)C[C@]3(C)CC=C[C@]123	2.7 microg/cm2
C=C1CCC[C@@H]2[C@@](C)(C/C=C3/CC(OC(C)=O)OC3OC(C)=O)[C@H](C)CC[C@@]12C (stereo partly drawn)	> 50 microg/cm2

Field: next compound
Entry C=C1CCC[C@@H]2[C@@](C)(C/C=C(\CC=O)C(C)=O)[C@H](C)CC[C@@]12C has what EC50?
7.7 microg/cm2

Origin of the recorded values: ChEMBL document CHEMBL3045829
